# Tested on: HCT-15
Values of GI50 strictly less than 30 µM map to yes (1), and values of at least 30 µM map to no (0).

>>> class("CC(CO)CCC(O)C(C)(O)C1CCC2(O)C3=CC(=O)C4CC(O)C(O)CC4(C)C3CCC12C (centres undefined)")
"no (0)"
>>> class("COc1cccc2c1C(=O)c1c(O)c3c(c(O)c1C2=O)C[C@@](O)(C(=O)CO)C[C@@H]3OC1CC(N)C(OC)C(C)O1 (some centres undefined)")
"yes (1)"
>>> class("NC(=O)C1CCN(Cc2c(Cl)c(Cl)c(CN3CCC(C(N)=O)CC3)c(Cl)c2Cl)CC1")
"no (0)"
>>> class("Cc1ccc(N2C(=O)C3c4[nH]c5ccc(C)cc5c4C4CCC(C(C)(C)C)CC4C3C2=O)cc1 (centres undefined)")
"no (0)"
>>> class("COc1cc(C2c3cc4c(c(O)c3C(=O)C3CCC(=O)N32)OCO4)cc(OC)c1OC (centres undefined)")
"no (0)"
>>> class("O=C(CC(C(=O)c1cccs1)c1ccsc1)c1ccco1 (centres undefined)")
"yes (1)"
>>> class("CC(=O)OCC1OC(n2cc(F)c(=O)[nH]c2=O)C(N)C(OC(C)=O)C1OC(C)=O (centres undefined)")
"no (0)"
>>> class("O=C(Nc1ccccc1[N+](=O)[O-])C(=O)C(C(=O)c1ccccc1-c1ccccc1)C1OC(=O)c2ccccc21 (centres undefined)")
"yes (1)"

---

# Test system: RXF 393
# Experimental protocol: NCI tumour cell line growth inhibition, 48 h
The source made the active and inactive calls. Rule as the data show it: active = GI50 up to about 1.1 µM and inactive = higher.
Classes used: active, inactive

>>> class("O=C(Nc1nc2ncn(CCI)c2c(=O)[nH]1)c1ccccc1")
"inactive"
>>> class("CN1C(C(=O)Nc2ccccn2)=C(O)c2ccccc2S1(=O)=O")
"inactive"
>>> class("CCCCCCCCCCCCCCCC/C(C(=O)OC)=C(/O)C(=O)OCC")
"inactive"
>>> class("COc1c(Cl)ccc(Cl)c1C(=O)NNC(=O)c1c(Cl)c(Cl)c(Cl)c(Cl)c1-c1nc2cc(C(=O)c3ccccc3)ccc2[nH]1")
"inactive"
>>> class("NC(=O)C1CCN(Cc2c(Cl)c(Cl)c(CN3CCC(C(N)=O)CC3)c(Cl)c2Cl)CC1")
"inactive"
>>> class("CCCOc1ccc(/C=C\\c2cc(OC)c(OC)c(OC)c2)cc1")
"inactive"
>>> class("Clc1ccc2c(Cl)ncnc2c1I")
"inactive"
>>> class("C[n+]1c(-c2ccc(/C=N\\N3CCN(/N=C/c4ccc(-c5cn6ccccc6[n+]5C)cc4)CC3)cc2)cn2ccccc21")
"inactive"
>>> class("N=C(N)NCCCS(=O)(=O)Nc1ccc(Nc2c3ccccc3nc3cc([N+](=O)[O-])ccc23)cc1")
"inactive"
>>> class("CN(C)CCNc1ccc2nnn3c4ccc(Cl)cc4c(=O)c1c23")
"inactive"
>>> class("Cc1ccc(Sc2ccccc2C23OC(C)(C4C(=O)N(c5ccccc5)C(=O)C42)N(C)C3=O)cc1 (stereo not given)")
"inactive"
>>> class("CCCCCCN(CCCCCC)C(=S)N/N=C(\\C)c1ccccn1")
"active"
>>> class("COc1ccc(NC(=O)CC(=O)NN)cc1")
"inactive"
>>> class("CCOC(=O)N1CCc2cc(OC)c(OC)c3c2c1cc1cc(OC)c(OC)cc13")
"inactive"
>>> class("O=C1c2cccc3cc([N+](=O)[O-])cc(c23)C(=O)N1CCNCCNCCNCCN1C(=O)c2cccc3cc([N+](=O)[O-])cc(c23)C1=O")
"active"
>>> class("CC1(C)C=C(S(=O)(=O)c2ccccc2)Oc2ccccc2O1")
"inactive"
>>> class("CC1=NN(c2nc(N)nc(/C(C#N)=C\\c3ccc(-c4ccc([N+](=O)[O-])cc4)o3)n2)C(C)(C)C1")
"inactive"
>>> class("NC(=O)c1c([N+](=O)[O-])cc(C(F)(F)F)cc1[N+](=O)[O-]")
"inactive"
>>> class("S=c1sc2ccccc2n1CN1CCN(Cc2ccccc2)CC1")
"inactive"
>>> class("CCC12C=CCN3CCC4(C(=C(C(=O)OC)[C@@H]1O)Nc1ccccc14)C32 (stereo not given in full)")
"inactive"
>>> class("CC1OC(CC2C=CCc3c(O)c4c(c(O)c32)C(=O)c2ccccc2C4=O)CC(NC(=O)C(F)(F)F)C1O (stereo not given)")
"inactive"
>>> class("S=c1nc(Nc2ccc(Br)cc2)c2c3c(sc2[nH]1)CN(N1CCc2c(sc4[nH]c(=S)nc(Nc5ccc(Br)cc5)c24)C1)CC3")
"inactive"
>>> class("NC(=S)N/N=C1\\C(=O)Nc2c(Cl)cc(Cl)cc21")
"inactive"
>>> class("OCc1nnn2c1CCC2")
"inactive"
>>> class("CCN(CC)C(c1ccc(N(C)C)cc1)C(c1ccc(N(C)C)cc1)N(CC)CC (stereo not given)")
"inactive"
>>> class("COc1ccc(OC)c(/C=N/N=C(\\N)NO)c1")
"inactive"
>>> class("COC(=O)[C@@H]1c2[nH]c3ccccc3c2C[C@@H]2c3ccccc3NC(=O)[C@@H]21")
"inactive"
>>> class("CN(CCCNC(=O)c1nn(C)c2c1Cc1ccccc1-2)CCCNC(=O)c1nn(C)c2c1Cc1ccccc1-2")
"inactive"
>>> class("CCCCC/C=C1\\CCC(CN2CCOCC2)C1=O (stereo not given)")
"inactive"
>>> class("O=C1c2cccc3cccc(c23)C(=O)N1CCCNOCCONCCCN1C(=O)c2cccc3cccc(c23)C1=O")
"inactive"
>>> class("CN(CCC(=O)O)C1=Nc2ccc(Cl)cc2C(c2ccccc2)=[N+]([O-])C1")
"inactive"
>>> class("CCOC(=O)c1c(N2CCCC2)nsc1Nc1ccccc1")
"inactive"
>>> class("CCC(=O)NC(OCC1(CC)COC1)(C(F)(F)F)C(F)(F)F")
"inactive"
>>> class("CCOC(=O)C(C)(c1cn(C)c2ccccc12)c1cn(C)c2ccccc12")
"inactive"
>>> class("CCOC(=O)C1=C(Nc2ccc(Cl)c(Cl)c2)OC/C1=N\\NS(=O)(=O)c1ccc(C)cc1")
"inactive"
>>> class("Clc1ccc(CCc2ccncn2)c(Cl)c1")
"inactive"
>>> class("CCN(CC)CCOc1ccc(CCc2cc(OC)c(OC)c(OC)c2)cc1")
"inactive"
>>> class("O=C1Nc2nccnc2C(=O)N2CCC[C@@H]12")
"inactive"
>>> class("CCCCCCCCCC(=O)NC(CCC(=O)N(CCNC(=O)c1nc(-c2ccccc2)oc1-c1ccccc1)Cc1ccccc1)C(=O)O (stereo not given)")
"inactive"
>>> class("COc1ccc2[nH]c(Cl)c(/C=C3/C(=O)Nc4cc(C)c(OC)cc43)c2c1")
"inactive"
